Measured values drawn from patent US9951046B2 for this set.

target: human TRPA1 (Homo sapiens); construct: expressed in transfected cells; experiment: Cell-based functional intracellular calcium ([Ca2+]i) assay, Fluo-4/Fluo-8, FlexStation, challenge with reference TRPA1 agonist (FFA, AITC or 4-HNE); conditions: HEK293 cells expressing human TRPA1; IC50 class after addition of reference TRPA1 agonist (FFA, AITC or 4-HNE); read-out: human TRPA1-HEK Activity
Sequence (O75762 whole entry): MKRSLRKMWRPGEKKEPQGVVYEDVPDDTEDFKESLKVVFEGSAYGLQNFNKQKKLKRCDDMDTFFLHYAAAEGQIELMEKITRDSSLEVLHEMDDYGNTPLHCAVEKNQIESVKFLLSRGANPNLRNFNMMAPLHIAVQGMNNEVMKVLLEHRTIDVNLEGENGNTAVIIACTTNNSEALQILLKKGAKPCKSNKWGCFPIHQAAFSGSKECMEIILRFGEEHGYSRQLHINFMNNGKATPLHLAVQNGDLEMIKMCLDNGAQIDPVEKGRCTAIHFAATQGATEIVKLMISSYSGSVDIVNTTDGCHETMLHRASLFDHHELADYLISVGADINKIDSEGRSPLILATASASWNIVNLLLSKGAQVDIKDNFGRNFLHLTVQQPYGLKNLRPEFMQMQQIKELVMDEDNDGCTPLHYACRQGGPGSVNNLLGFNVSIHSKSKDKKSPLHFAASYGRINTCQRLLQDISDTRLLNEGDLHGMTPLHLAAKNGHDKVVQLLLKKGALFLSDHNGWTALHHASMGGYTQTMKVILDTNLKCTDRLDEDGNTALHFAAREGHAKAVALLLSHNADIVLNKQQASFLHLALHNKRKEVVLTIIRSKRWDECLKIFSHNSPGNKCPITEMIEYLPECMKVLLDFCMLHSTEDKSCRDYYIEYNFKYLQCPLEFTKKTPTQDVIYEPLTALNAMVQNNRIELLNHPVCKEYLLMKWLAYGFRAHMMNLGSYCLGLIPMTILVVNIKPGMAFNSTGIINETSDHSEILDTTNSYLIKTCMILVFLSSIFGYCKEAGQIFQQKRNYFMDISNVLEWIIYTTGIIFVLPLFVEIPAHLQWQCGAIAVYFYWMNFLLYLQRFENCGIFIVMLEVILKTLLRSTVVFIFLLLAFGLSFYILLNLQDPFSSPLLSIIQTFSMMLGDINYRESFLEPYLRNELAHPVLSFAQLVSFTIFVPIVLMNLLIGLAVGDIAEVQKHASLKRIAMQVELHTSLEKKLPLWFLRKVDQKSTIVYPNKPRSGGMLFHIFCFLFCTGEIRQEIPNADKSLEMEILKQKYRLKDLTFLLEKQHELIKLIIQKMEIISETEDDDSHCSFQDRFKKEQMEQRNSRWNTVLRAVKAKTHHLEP
pIC50: −log10 of the molar value.
quantity measured: pIC50

Task: Look at this compound and give its reported pIC50. `O=C(c1cc(-c2cccnc2)n(-c2ccc(Cl)c(C(F)(F)F)c2)n1)N1CCC2(CC1)C(=O)NCN2c1ccc(F)cc1`
Result: 5.30 to 9.00

Task: Can you look up the measured pIC50 of `N#Cc1ccc(-n2nc(C(=O)N3CCC(n4c(=O)[nH]c5ccc(F)c(F)c54)CC3)cc2-c2cccnc2)cc1` for me?
Result: 5.30 to 9.00

Task: Bench note: what pIC50 did `Cn1c(=O)n(C2CCN(C(=O)c3cc(-c4ccncc4)n(-c4ccc(C(F)(F)F)nc4)n3)CC2)c2ccccc21` show?
Result: < 4.60

Task: Consider the compound `O=C1Nc2ccc(F)cc2C2(CCN(C(=O)c3cc(-c4cccnc4)n(-c4cc(F)c(F)c(F)c4)n3)CC2)O1` and give its measured pIC50.
Result: 5.30 to 9.00

Task: May I ask what pIC50 has been recorded for `O=C(c1cc(-c2cccnc2)n(-c2ccc(C(F)(F)F)c(F)c2)n1)N1CCN2C(=O)OC[C@@H]2C1` ?
Result: 5.30 to 9.00

Task: Any idea what its pIC50 is? The compound is O=C(c1cc(-c2ccncc2)n(-c2ccc(C(F)(F)F)nc2)n1)N1CC(=O)N2CCc3ccccc3C2C1 (stereo not shown)
Result: < 4.60

Task: Return reported pIC50; argument: `O=C1OC2(CCN(C(=O)c3cc(-c4ccncc4)n(-c4ccc(C(F)(F)F)c(F)c4)n3)CC2)c2ccccc21`
Result: < 4.60
